- Assay explanation: qHTS assay to identify small molecule agonists of the NFkB signaling pathway (AID 1159509)
- Condition summary: NFkB-bla ME-180 cells, beta-lactamase FRET ratio, 5 h; series mostly up to 61 µM
Inconclusive results are not listed. The source made the active and inactive calls. Calls follow the shape of the dose curve; as a rule, active = well fitted curve in the direction sought with a large enough effect in the signal ratio in the repeat runs (not every such curve was filed as active); inconclusive = weak or mixed curves, or a change in a side signal; inactive = no such curve, though single readings can be large or run the other way; the % refers to the signal ratio.
Attribute measured: outcome

- Structure string: "Cc1ccc(N)c(N)c1"
  Observed value: "inactive"
- Structure string: "CCCCCCOC(=O)c1ccccc1C(=O)OCCCCCC"
  Observed value: "inactive"
- Structure string: "N[C@@H](Cc1ccc(N(CCCl)CCCl)cc1)C(=O)O"
  Observed value: "inactive"
- Structure string: "CC(C)(C)c1ccccc1O"
  Observed value: "inactive"
